Can you tell me TGI for the items I'm about to list?
# System: HCT-15 colon
# TEST METHOD NOTES: NCI tumour cell line growth inhibition, 48 h

Use the examples below as a reference point.
compound="CC(C)=C1C(=O)C[C@]2(C)C[C@H]3/C(=C(/C)CCC12)CC[C@@]3(C)O (some centres not stated)" reported_value="> 50 µM"
compound=C[C@H]1Oc2cc(cnc2N)-c2c(nn(C)c2C#N)CN(C)C(=O)c2ccc(F)cc21 reported_value="> 100 µM"
compound=O=C(O)CSc1n[nH]c(-c2ccccc2)n1 reported_value="> 100 µM"
compound=CCOC(=O)C(C)(C)Oc1ccc2c(C)c(-c3ccc(Cl)cc3)c(=O)oc2c1 reported_value="> 100 µM"
compound="C[C@H]1NC(=O)C2CCCCN2C(=O)CN(C)C(=O)CNC(=O)C2CCCCN2C(=O)[C@@H](NC(=O)c2nc3ccccc3cc2O)[C@@H](C)NC(=O)C2CCCCN2C(=O)CN(C)C(=O)CNC(=O)[C@@H]2CCCCN2C(=O)C1NC(=O)c1nc2ccccc2cc1O (some centres not stated)" reported_value="> 100 µM"

State recorded TGI for all listed compounds.
1. CCOC(=O)c1cc(C2(O)CCN(CC(C)CC)C2=O)c(-c2cc(C)no2)[nH]1 (configuration not stated)
2. CC(C)=CCc1cc(O)cc2c1OC(C=C(C)C)C1=C2C(=O)C2=C(NCCS2(=O)=O)C1=O (configuration not stated)

A)
["> 100 µM", "6.46 µM"]

====

# Tested on: SR leukemia
# TEST METHOD NOTES: NCI tumour cell line growth inhibition, 48 h
Can you tell me TGI for the items I'm about to list?

compound=CC(C)(C)c1cc(C(=O)/C=C/C=C/c2ccccc2)cc(C(C)(C)C)c1O outcome_measure=TGI reported_value="13.4 µM"
compound=COc1ccccc1N1CCN(CCCn2c(=O)c3c(OC)nc(C)cc3c(=O)n2-c2ccccc2)CC1 outcome_measure=TGI reported_value="> 100 µM"
compound="O=c1[nH]c(=O)n(C2CC(O)C(CO)O2)cc1CO (configuration not stated)" outcome_measure=TGI reported_value="> 100 µM"
compound=Cn1cc(C2=C(c3cn(C)c4cc(C(N)=O)ccc34)C(=O)NC2=O)c2ccccc21 outcome_measure=TGI reported_value="> 22.8 µM"

State recorded TGI for all listed compounds.
1. O=[N+]([O-])c1ccc(S(=O)(=O)N=Ic2ccccc2)cc1
2. S=c1[nH]n2c(COc3cccc(OCc4nnc5sc(=S)[nH]n45)c3)nnc2s1

A)
1: > 100 µM; 2: > 100 µM

====

Can you tell me TGI for the items I'm about to list?
# Test system: SK-OV-3 ovarian
# TEST METHOD NOTES: NCI tumour cell line growth inhibition, 48 h

Use the examples below as a reference point.
compound=CCN(CC)C(=S)SS(=O)(=O)c1ccc(F)cc1 reported_value="> 100 µM"
compound=O=C(NC(=O)c1cn(CCNCCO)c(=O)[nH]c1=O)OCc1ccccc1 reported_value="> 100 µM"

In the following, a different compound is considered.
Measured TGI of CC(NNC(=O)CC(=O)N(C(=O)c1ccccc1)c1ccc(Cl)cc1)c1cc2ccccc2oc1=O (stereo not drawn) : > 10 µM

====

# System: MDA-N
# TEST METHOD NOTES: NCI tumour cell line growth inhibition, 48 h
OUTCOME MEASURE: TGI

State recorded TGI for all listed compounds.
1. CCSc1[nH]c(Nc2nc(-c3ccccc3)n(-c3ccccc3)n2)c(C(N)=O)c1C(N)=O
2. CC(NNC(=O)CC(=O)N(C(=O)c1ccccc1)c1ccc(Cl)cc1)c1cc2ccccc2oc1=O (centres undefined)
3. O=C(CCc1cc(O)cc(O)c1)NCCc1cc(O)cc(O)c1
4. O=S(=O)(O)c1ccc(N=Nc2ccc(N=Nc3c(O)ccc4ccccc34)cc2)cc1
5. O=C(/C=C/C=C/c1ccccc1)c1ccc2c(c1)CCCC2
6. O=C(c1cc(Cl)cc(Cl)c1)N1CCN(C(=O)c2cc(Cl)cc(Cl)c2)C1=S
7. Cc1ccc(-c2c3c(n(C4OC(CO)C(O)C(O)C4O)c(=S)c2C#N)CC(C)(C)CC3=O)cc1 (centres undefined)

A)
["> 10 µM", "> 10 µM", "> 100 µM", "> 100 µM", "62.8 µM", "34.5 µM", "> 100 µM"]

State recorded TGI for all listed compounds.
1. S=c1[nH]n2c(COc3cccc(OCc4nnc5sc(=S)[nH]n45)c3)nnc2s1
2. CC(=O)OC12c3ccccc3-c3ccccc3C1C1C(=O)N(C)C(=O)C12Cl (centres undefined)

A)
1: > 100 µM; 2: > 10 µM
